The measured values listed here are drawn from ChEMBL document CHEMBL1629440.

pKi: −log10 of the molar value.
Data export: pKi values recorded with D(1B) dopamine receptor (Homo sapiens).
Sequence (P21918 whole entry): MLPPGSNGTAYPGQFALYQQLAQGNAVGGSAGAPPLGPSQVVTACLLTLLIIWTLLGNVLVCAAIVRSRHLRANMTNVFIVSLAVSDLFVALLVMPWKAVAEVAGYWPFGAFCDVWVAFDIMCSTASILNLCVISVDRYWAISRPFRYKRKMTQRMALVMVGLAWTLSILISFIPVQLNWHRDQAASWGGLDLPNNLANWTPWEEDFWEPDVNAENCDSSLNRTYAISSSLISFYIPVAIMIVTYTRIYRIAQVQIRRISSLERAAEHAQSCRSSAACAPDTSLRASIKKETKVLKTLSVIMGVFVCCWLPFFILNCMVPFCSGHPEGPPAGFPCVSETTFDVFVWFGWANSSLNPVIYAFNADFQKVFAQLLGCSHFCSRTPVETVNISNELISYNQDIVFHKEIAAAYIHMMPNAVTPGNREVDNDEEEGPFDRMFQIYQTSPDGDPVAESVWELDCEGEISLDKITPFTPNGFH

Smiles record	pKi
COC(=O)CCCCCN1CCC(CNC(=O)c2c3n(c4ccccc24)CCCO3)CC1	< 5.00
O=C(O)CCCCCN1CCC(CNC(=O)c2c3n(c4ccccc24)CCCO3)CC1	< 5.00

* * *

Measured Ki accompanies every entry in the list below.
- Experimental target: Alpha-2C adrenergic receptor (Homo sapiens, UniProt P18825)
- Sequence (P18825 whole entry): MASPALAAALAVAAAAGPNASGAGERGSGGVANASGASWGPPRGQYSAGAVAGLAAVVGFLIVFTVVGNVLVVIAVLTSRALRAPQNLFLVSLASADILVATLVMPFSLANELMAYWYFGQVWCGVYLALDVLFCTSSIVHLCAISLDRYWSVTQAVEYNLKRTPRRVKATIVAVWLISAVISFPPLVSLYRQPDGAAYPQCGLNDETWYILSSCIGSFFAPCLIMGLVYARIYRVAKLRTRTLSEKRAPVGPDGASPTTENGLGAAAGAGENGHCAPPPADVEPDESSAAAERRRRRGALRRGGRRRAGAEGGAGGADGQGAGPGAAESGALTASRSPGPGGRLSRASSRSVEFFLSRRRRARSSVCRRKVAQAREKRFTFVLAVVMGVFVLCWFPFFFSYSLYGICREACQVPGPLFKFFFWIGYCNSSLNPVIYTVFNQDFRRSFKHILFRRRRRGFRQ

Smiles record	Ki
O=C(O)CCCCCN1CCC(CNC(=O)c2c3n(c4ccccc24)CCCO3)CC1	> 10 µM
COC(=O)CCCCCN1CCC(CNC(=O)c2c3n(c4ccccc24)CCCO3)CC1	> 10 µM

* * *

- Experimental target: 5-hydroxytryptamine receptor 1E (Homo sapiens, UniProt P28566)
- Sequence (P28566 whole entry): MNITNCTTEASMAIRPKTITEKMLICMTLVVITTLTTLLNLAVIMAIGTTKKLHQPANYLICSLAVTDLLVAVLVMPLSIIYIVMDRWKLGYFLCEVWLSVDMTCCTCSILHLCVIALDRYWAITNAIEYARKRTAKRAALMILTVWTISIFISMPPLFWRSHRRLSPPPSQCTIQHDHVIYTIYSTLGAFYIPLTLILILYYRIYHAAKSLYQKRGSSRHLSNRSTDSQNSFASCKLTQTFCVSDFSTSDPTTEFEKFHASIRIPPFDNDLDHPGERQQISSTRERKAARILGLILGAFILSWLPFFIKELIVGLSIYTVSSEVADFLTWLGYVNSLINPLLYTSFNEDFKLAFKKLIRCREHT
pKi: −log10 of the molar value.

Smiles record	Experimental target	pKi
COC(=O)CCCCCN1CCC(CNC(=O)c2c3n(c4ccccc24)CCCO3)CC1	5-hydroxytryptamine receptor 1E (Homo sapiens, UniProt P28566)	< 5.00
O=C(O)CCCCCN1CCC(CNC(=O)c2c3n(c4ccccc24)CCCO3)CC1	5-hydroxytryptamine receptor 1E (Homo sapiens, UniProt P28566)	< 5.00

* * *

- Experimental target: Alpha-2B adrenergic receptor (Homo sapiens, UniProt P18089)
- Sequence (P18089 whole entry): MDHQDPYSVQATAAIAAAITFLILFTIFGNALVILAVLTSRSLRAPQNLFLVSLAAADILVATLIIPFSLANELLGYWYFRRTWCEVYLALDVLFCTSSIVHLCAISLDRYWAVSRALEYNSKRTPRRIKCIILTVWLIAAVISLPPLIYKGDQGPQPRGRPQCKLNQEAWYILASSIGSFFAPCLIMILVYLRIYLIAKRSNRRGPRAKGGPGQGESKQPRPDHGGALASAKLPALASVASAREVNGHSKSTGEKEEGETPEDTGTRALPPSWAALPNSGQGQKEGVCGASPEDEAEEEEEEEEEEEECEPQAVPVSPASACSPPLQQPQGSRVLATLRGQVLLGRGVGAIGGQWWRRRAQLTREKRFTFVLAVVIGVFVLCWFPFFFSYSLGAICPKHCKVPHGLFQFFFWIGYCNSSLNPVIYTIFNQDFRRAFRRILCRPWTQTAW
Assay readout: Ki (µM)

Smiles record	Assay readout	Limit qualifier	Number
O=C(O)CCCCCN1CCC(CNC(=O)c2c3n(c4ccccc24)CCCO3)CC1	Ki	>	10
COC(=O)CCCCCN1CCC(CNC(=O)c2c3n(c4ccccc24)CCCO3)CC1	Ki	=	1.26
